System: NCI/ADR-RES ovarian
Test Description: NCI-60 one-dose screen, 48 h (100 = growth as untreated, 0 = no growth, -100 = all killed)
Conditions Used: 10 µM unless noted
About 83,000 compounds went through this panel and 20% of them were active in at least one assay; those are over-represented in the sample as a whole. Active and inactive are the calls of the source. The calls were made as follows: active = growth percent below 10; inactive = the rest.
Metric Name: growth

The cases that follow already have their growth on record.
> print(dat)
                                   compound  metric.name       recorded.measurement
1       CNc1ccc(-c2cc(=O)oc3ccc(Cl)cc23)cc1       growth           12.4% (inactive)
2  Cc1cc(N2CCCCCC2)nc(NC2CCCC(Nc3ccnc4cc(Cl)ccc34)C2)n1 (stereo unspecified)       growth            -72.2% (active)
3  Cc1ccc(NC(=O)C2CCC(CN3CCN(C)CC3)CC2)cc1Nc1nccc(-c2cccnc2)n1 (stereo unspecified)       growth           97.5% (inactive)
4  COc1ccc(C2CC(c3ccc(Cl)cc3)=NN2/C=C2\SC(=S)N(NC(=O)Cc3ccccc3Nc3c(Cl)cccc3Cl)C2=O)cc1 (stereo unspecified)       growth             82% (inactive)
5      C#Cc1cccc(NC(=O)c2ccccc2NC(=O)C=C)c1       growth  103% [8.25 µM] (inactive)
6  O=C1/C(=C/c2ccc3c(c2)OCO3)SC(=S)N1CCc1ccc(O)cc1       growth           97.4% (inactive)
7  COc1ccc(CCNc2nc(SC)nc(-c3cccc([N+](=O)[O-])c3)c2C#N)cc1OC       growth           68.4% (inactive)
8  Clc1ccc2c(NCCNc3nc(N4CCCCC4)nc4ccccc34)ccnc2c1       growth           25.4% (inactive)

Working through the 6 compounds below one at a time, give growth for each.
1. Cc1cn2c(/C=C3/C(=O)Nc4c3ccc3ccccc43)c(C(F)(F)F)nc2s1
2. Oc1cccc(-c2nc(N3CCOCC3)c3c4c(sc3n2)CCCC4)c1
3. O=C(Oc1cccnc1)c1ccsc1Nc1ccnc(C(F)(F)F)c1
4. NC1=C(Cl)C(=O)c2ccc(S(N)(=O)=O)cc2C1=O
5. O=C1/C(=C/c2cn(-c3ccccc3)nc2-c2ccccc2)SC(=S)N1CCc1ccccc1
6. Cc1cc2c3ccccc3ccc2[n+]2ccccc12

Resp:
["5.22% (active)", "52.1% (inactive)", "60.4% (inactive)", "-30.7% (active)", "107% (inactive)", "46.7% (inactive)"]

# per-item lookup of growth; items listed below
1. Oc1cccc2ccc(N/N=C/c3cc(CN4CCOCC4)c(O)c4ncccc34)nc12
2. CC(C)(O)c1cn(CCCCN2C(=O)C(=O)c3ccccc32)nn1
3. CCc1nc(N)nc(N)c1C#CC(C)c1ccc(-c2ccncc2)cc1Cl (stereo unspecified)
4. Cc1cc(N2CCOCC2)nc(N[C@@H]2CCC[C@H](Nc3ccnc4cc(Cl)ccc34)C2)n1
5. COc1cc(C(=O)/C=C/c2cccnc2Nc2ccc(Cl)cc2)cc(OC)c1OC

Resp:
["2.84% (active)", "99.9% (inactive)", "21.8% (inactive)", "18.2% (inactive)", "3.59% (active)"]

# per-item lookup of growth; items listed below
1. CC(=O)c1cc2c(N)c(C(=O)Nc3ccccc3)sc2nc1C
2. NC(=NCCCOc1ccc(Cl)cc1)Nc1ccc(C(F)(F)F)cc1

Resp:
75.9% (inactive)
62.8% (inactive)

Sourced from PubChem BioAssay (NCI)
